# maps each entry to its FP (mP)
- Tgt: interaction between cTnC and switch peptide of cTnI (cTnISP) (Homo sapiens)
- Experiment description: Fluorescence polarization HTS and dose-response, cTnC/FAM-cTnISP
- Format: binding
- Condition summary: cTnISP primary screen, LOPAC 1280 library, single concentration 50 μmol/L
Where a name gives a salt, the structure may show the parent alone.
Your answer should be a plain number; it is taken to be in mP.

### Prompt Data request, read-out FP (mP), for COc1cc(N2CCN(C)CC2)ccc1Nc1nccc(-c2cn(C)c3cnccc23)n1 [AZ 191]
### Response 88.5

### Prompt Data request, read-out FP (mP), for OCCN1CCN(CCCN2c3ccccc3Sc3ccc(C(F)(F)F)cc32)CC1 [Fluphenazine dihydrochloride]
### Response 87.3

### Prompt Data request, read-out FP (mP), for CSc1ccc2c(c1)N(CCC1CCCCN1C)c1ccccc1S2 (stereo not shown) [Thioridazine.HCl]
### Response 89.4

* * *

- Tgt: interaction between cTnC and switch peptide of cTnI (cTnISP) (Homo sapiens)
- Experiment description: Fluorescence polarization HTS and dose-response, cTnC/FAM-cTnISP
- Type: binding
- Condition summary: cTnISP primary screen, ENZO Screenwell library, single concentration 50 μmol/L
Structures can show the parent of a compound that is named as a salt.
Flag rule - FP (mP) less than 80 mP flags Criterion met; the remaining entries get Criterion not met.

N[C@@H](Cc1cc(I)c(Oc2cc(I)c(O)c(I)c2)c(I)c1)C(=O)[O-].[Na+] = Criterion not met
C[C@@H](NCCCc1cccc(C(F)(F)F)c1)c1cccc2ccccc12 [Cinacalcet.HCl] = Criterion not met
CN(C)CCCN1c2ccccc2Sc2ccc(Cl)cc21 [Chlorpromazine.HCl] = Criterion not met
COc1cc2ncnc(Nc3ccc(F)c(Cl)c3)c2cc1OCCCN1CCOCC1 = Criterion not met
CC(C)/N=c1\cc2n(-c3ccc(Cl)cc3)c3ccccc3nc-2cc1Nc1ccc(Cl)cc1 = Criterion not met
CCN(CC)CCOc1ccc(C(=C(Cl)c2ccccc2)c2ccccc2)cc1 [Clomiphene Citrate] = Criterion met

### Prompt # TODO verify FP (mP) < 80 mP strictly for this molecule: O=C(c1ccc(OCCN2CCCCC2)cc1)c1c(-c2ccc(O)cc2)sc2cc(O)ccc12 [Raloxifene.HCl]
### Response Criterion met

### Prompt # TODO verify FP (mP) < 80 mP strictly for this molecule: CC/C(=C(\c1ccccc1)c1ccc(OCCN(C)C)cc1)c1ccccc1 [Tamoxifen Citrate]
### Response Criterion met

### Prompt # TODO verify FP (mP) < 80 mP strictly for this molecule: CSc1ccc2c(c1)N(CCC1CCCCN1C)c1ccccc1S2 (stereo not shown) [Thioridazine.HCl]
### Response Criterion met

### Prompt # TODO verify FP (mP) < 80 mP strictly for this molecule: CN(C)CCOc1ccc(/C(=C(/CCCl)c2ccccc2)c2ccccc2)cc1
### Response Criterion met

* * *

# maps each entry to its FP (mP)
- Tgt: interaction between cTnC and the anchoring region of cTnI (cTnIAR) (Homo sapiens, UniProt P63316)
- Experiment description: Fluorescence polarization HTS, binding and dose-response, cTnC/FAM-cTnIAR
- Condition summary: cTnIAR primary screen, LOPAC 1280 library, single concentration 10 μmol/L
Your answer should be a plain number; it is taken to be in mP.

Example compounds with recorded FP (mP):
Cl.c1ccc(C2CCCC2NC2=NCCCCCCCCCCC2)cc1 (stereo not shown) = 67.5
N.N.[Cl][Pt][Cl] [Cisplatin, Cis-Diamineplatinum(Ii) Dichloride] = 56.6
O=C1c2c(O)ccc(O)c2C(=O)c2c(NCCNCCO)ccc(NCCNCCO)c21 = 57.1

Note: attention shifts to another entry.
### Prompt Data request, read-out FP (mP), for N#CC(C#N)=C(N)/C(C#N)=C/c1ccc(O)cc1
### Response 115.8

* * *

- Tgt: interaction between cTnC and switch peptide of cTnI (cTnISP) (Homo sapiens, UniProt P63316)
- Experiment description: Fluorescence polarization HTS and dose-response, cTnC/FAM-cTnISP
- Assay type: binding
- Condition summary: cTnISP primary screen, TOCRIScreen library, single concentration 50 μmol/L
Assay readout: FP (mP)
Your answer should be a plain number; it is taken to be in mP.

COc1cc(N2CCN(C)CC2)ccc1Nc1nccc(-c2cn(C)c3cnccc23)n1 [AZ 191] = 83.4

### Prompt Data request, read-out FP (mP), for COc1cc(N2CCN(C)CC2)ccc1Nc1ncc2c(n1)N(C)c1ccccc1C(=O)N2 [XMD 8-87]
### Response 81.2

### Prompt Data request, read-out FP (mP), for CC(C)(Cc1ccc2ccccc2c1)NC[C@@H](O)COc1cccc(Cl)c1C#N.Cl [NPS 2143 hydrochloride]
### Response 87.5

### Prompt Data request, read-out FP (mP), for Cc1nc(Nc2cnn(C3CCNCC3)c2)nc2c1N(C)C(=O)c1cc3ccccc3cc1N2C [HTH 01-015]
### Response 87.1

* * *

# maps each entry to its FP (mP)
- Tgt: interaction between cTnC and switch peptide of cTnI (cTnISP) (Homo sapiens)
- Experiment description: Fluorescence polarization HTS and dose-response, cTnC/FAM-cTnISP
- Format: binding
- Condition summary: cTnISP primary screen, ENZO Screenwell library, single concentration 50 μmol/L
Structures can show the parent of a compound that is named as a salt. *1 amine or outer side, *2 acyl side, *3 side chain or, on linkers, in order; H or OH if unused. Where a SMILES comes first, the peptide text is derived from it. Bridges are numbered along the chain shown (N, C = ends). [ ]: non-standard residue; d: D form. The star is where a group is joined. hTyr(3S-OH,4S-OH,3'-OSO3H) = N[C@H](C(=O)O)[C@H](O)[C@@H](O)c1ccc(O)c(OS(=O)(=O)O)c1; Orn(4R-OH,5R-OH) = O=C([C@H](C[C@@H](O)[C@@H](O)N[*:3])N[*:1])[*:2]; Pro(3S-OH,4S-Me) = C[C@H]1CN[C@H](C(=O)O)[C@H]1O; X1 = CCCCCOc1ccc(-c2cc(-c3ccc(C(=O)*)cc3)no2)cc1; Gln(3R-OH) = NC(=O)C[C@@H](O)[C@H](N)C(=O)O; Hyp = O=C(O)[C@@H]1C[C@@H](O)CN1
Your answer should be a plain number; it is taken to be in mP.

Example molecules with recorded FP (mP):
OCCN1CCN(CCCN2c3ccccc3Sc3ccc(C(F)(F)F)cc32)CC1 [Fluphenazine.HCl] = 76.1
CCCCCOc1ccc(-c2cc(-c3ccc(C(=O)N[C@H]4C[C@@H](O)[C@@H](O)NC(=O)[C@@H]5[C@@H](O)[C@@H](C)CN5C(=O)[C@H]([C@H](O)CC(N)=O)NC(=O)[C@H]([C@H](O)[C@@H](O)c5ccc(O)c(OS(=O)(=O)O)c5)NC(=O)[C@@H]5C[C@@H](O)CN5C(=O)[C@H]([C@@H](C)O)NC4=O)cc3)no2)cc1 [Micafungin] (X1-[Orn(4R-OH,5R-OH)]T[Hyp][hTyr(3S-OH,4S-OH,3'-OSO3H)][Gln(3R-OH)][Pro(3S-OH,4S-Me)]; lactam 1-C) = 128.6

### Prompt Data request, read-out FP (mP), for COC(=O)[C@H]1[C@H]2C[C@@H]3c4[nH]c5cc(OC)ccc5c4CCN3C[C@H]2C[C@@H](OC(=O)c2cc(OC)c(OC)c(OC)c2)[C@@H]1OC
### Response 88.4

### Prompt Data request, read-out FP (mP), for OCCN1CCN(CCCN2c3ccccc3Sc3ccc(Cl)cc32)CC1
### Response 73.2

### Prompt Data request, read-out FP (mP), for Clc1ccc(C(Cn2ccnc2)OCc2csc3c(Cl)cccc23)c(Cl)c1 (centres unmarked)
### Response 88.2

* * *

- Tgt: interaction between cTnC and switch peptide of cTnI (cTnISP) (Homo sapiens)
- Experiment description: Fluorescence polarization HTS and dose-response, cTnC/FAM-cTnISP
- Type: binding
- Condition summary: cTnISP primary screen, TOCRIScreen library, single concentration 50 μmol/L
Structures can show the parent of a compound that is named as a salt.
Assay readout: FP (mP)
Your answer should be a plain number; it is taken to be in mP.

Example compounds with recorded FP (mP):
CC/C(=C(\c1ccccc1)c1ccc(OCCN(C)C)cc1)c1ccccc1 [Tamoxifen Citrate] = 62.2
CCN(CC)CCCC(C)Nc1nc(C)cc(Nc2ccc3nc(C)cc(N)c3c2)n1 (stereo not drawn) = 89.5
CCN(CC)CCOc1ccc(Nc2ncc3cc(-c4c(Cl)cccc4Cl)c(=O)n(C)c3n2)cc1.Cl.Cl [PD 166285 dihydrochloride] = 78.7
CCN1CCN(Cc2ccc(C(=O)Nc3ccc(C)c(Oc4ccc5c(c4)CC(=O)N5)c3)cc2C(F)(F)F)CC1.Cl.Cl [DDR1-IN-1 dihydrochloride] = 74.4

### Prompt Data request, read-out FP (mP), for CC(C)COCC(CN(Cc1ccccc1)c1ccccc1)N1CCCC1 (stereo not drawn) [Bepridil hydrochloride]
### Response 87

### Prompt Data request, read-out FP (mP), for Cc1[nH]c(/C=C2\C(=O)Nc3ccc(S(=O)(=O)N(C)c4cccc(Cl)c4)cc32)c(C)c1C(=O)N1CCN(C)CC1
### Response 64.5

### Prompt Data request, read-out FP (mP), for COc1cc(N2CCC(O)CC2)ccc1Nc1cc(Nc2ccccc2S(=O)(=O)C(C)C)c2cc[nH]c2n1.Cl.Cl [Mps1-IN-1 dihydrochloride]
### Response 84.6

### Prompt Data request, read-out FP (mP), for Cn1c(NC[C@@H](N)Cc2ccccc2)nc(-c2ccncc2)c(-c2ccc3ccccc3c2)c1=O
### Response 90

// provenance: paper PMC10063609
